Here, each record is paired with measured inhibition data.
target: Hexose transporter 1 (Plasmodium falciparum) (UniProt O97467); assay: ST_JUDE_LEISH: Cytotoxicity at 2uM final concentration against transgenic Leishmania Mexicana promastigotes LmPfHT that are glucose transport deficient and complemented with the Plasmodium falciparum hexose transporter. Activity is measured by DNA content using SYBR green in vitro; format: functional
Measured Attribute: inhibition (%)

In [3]: df
Out[3]:
                                   compound  measured_attribute  unit_symbol  reported
0  CC(C)(C)[C@@H](Nc1ccc(C#N)c2ccccc12)C(=O)NC1(Cc2ccc(O)cc2)CCCC1          inhibition            %      -0.5
1  COc1ccc(Cn2c(SCc3ccc(C)cc3)nc3cc(OC)c(OC)cc3c2=N)cc1Cl          inhibition            %     -4.17
2  CC(C)N1CCC(NCc2ccc(-c3ccc(Cl)cc3)cc2)CC1          inhibition            %      13.6
3  O=C(NC1CCN(CC2(c3ccccc3F)CCCC2)CC1)c1cc[nH]n1          inhibition            %      1.54
4  COc1ccccc1C(=O)C1CCCN(C(=O)c2ccccc2C(F)(F)F)C1 (stereo not given)          inhibition            %     -0.77
5  Oc1cc(Nc2ccnc3cc(-c4cccc(CN5CCOCC5)c4)ccc23)c(F)cc1Cl          inhibition            %      4.48
6  COc1ccc(CN2CCC(NCc3cccc([N+](=O)[O-])c3)CC2)cc1          inhibition            %      7.16
7  O=C(Nc1ccc(Cn2ncc(N3CCNCC3)c(Cl)c2=O)cc1)Nc1ccc(-c2ccccc2)cc1          inhibition            %      2.78
8  COc1cc2nc(N3CCN(c4nc(N)c5cc(OC)c(OC)cc5n4)CC3)nc(N)c2cc1OC          inhibition            %      4.56
9  COc1ccc(-c2cnc3ccc(NCc4ccc(S(N)(=O)=O)cc4)nn23)cc1          inhibition            %      3.14
